target: T1, COX14 peptide complexed with HLA-A*02:01 on T2 cells (human); test: flow cytometry, peptide-loaded T2 cells;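 further: binding of single-chain Fv antibody constructs, raised in XenoMouse, to peptide-pulsed T2 cells measured by flow cytometry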
T1 construct: whole, on cells
Overview of recorded Signal/background for various binders
Give the value as a plain number.

Query: State the recorded Signal/background for this entry: 18089-D11 (scFv, scFv in bacterial lysate, detected with anti-Flag M2) scFv: EVQLLESGPVLVKPTQTLTLTCTFSGFSFTTHKMGVDWIRQPPGKALEWLALIYWNDDKRYNPSLQSRLTITKDTSKNQVVLTMTNMDPVDTATYYCAYRRYNWNYENWFDPWGQGTLVTVSSGGGGSGGGGSGGGGSELVMTQSPSSLSASVGDRVTITCRASQSISNYFNWYQQKPGKAPKLLIYAASSLQSGVPSRFSGSGSGTDFTLTISSLQPEDFATYYCQQSYITPFTFGGGTKLEIK
Reply: 1.1

Query: Fill blank: measured Signal/background of the binder 18181-F3 (scFv, scFv in bacterial lysate, detected with anti-Flag M2) scFv: EVQLLESGGGLVQPGGSLRLSCAASGFTFSNAWMSWVRQAPGKGLEWVGRIKGNTYGGTTDYAAPVKGRFTISRDDSKNTLFLQMNSLKTEDTAVYYCTTPSYSGSYYNYFSVMDVWGQGTTVTVSSGGGGSGGGGSGGGGSELVMTQSPSSLSASVGDRVTITCRTSQSISSYLNWYQQKPGRAPKLLIFAASSLQGGVPSRFSGSGSGTDFTLTISSLQPEDFATYYCQQSYSSPFTFGPGTKVEIK is ____.
Reply: 0.9
